Data origin: ChEMBL document CHEMBL1201862

- System: UO-31
- PROTOCOL_TEXT: NCI tumour cell line growth inhibition, 48 h
Active and inactive are the calls of the source. No stated cut-off is given here; in the data, active = GI50 up to about 1.1 µM and inactive = higher.
Measured GI50 of individual entries
REPORTED_ENDPOINT: GI50

INSERT INTO assay_data (compound, reported_endpoint, observed_result) VALUES
  ('CCC(C)C(C(=O)N/N=C1/SCC(=O)N1C)C(=O)N/N=C1/SCC(=O)N1C (stereo not given)', 'GI50', '> 100 µM (inactive)'),
  ('COC(=O)c1c2c(cc3c1CC1(Cc4ccc(C(C)=O)cc4C1)C3)CCC2 (stereo not given)', 'GI50', '52.4 µM (inactive)'),
  ('O=P1(c2ccccc2)c2ccccc2CCc2ccccc21', 'GI50', '53.3 µM (inactive)'),
  ('O=C(N/C(=C\c1c(O)ccc2ccccc12)c1nc2ccccc2[nH]1)c1ccccc1', 'GI50', '42.6 µM (inactive)'),
  ('Cc1ccc2[nH]/c(=N/S(=O)(=O)c3cc(C)c(Cl)cc3S)[nH]c2c1', 'GI50', '57 µM (inactive)'),
  ('Cc1ccc(C(=O)N2CCCCC2)cc1/N=N/N(C)C', 'GI50', '> 100 µM (inactive)'),
  ('COC(=O)C1=C(OC(=O)/C(=C/c2ccccc2)c2ccc([N+](=O)[O-])cc2)C(C(=O)OC)[C@@]2(O)[C@@H](C(=O)OC)[C@H](C)C[C@@H]1[C@@H]2C(=O)OC (stereo not given in full)', 'GI50', '> 100 µM (inactive)'),
  ('CC(C)(C)C1=C(Br)C(F)(C(C)(C)C)OP1(=O)c1ccccc1 (stereo not given)', 'GI50', '45.7 µM (inactive)'),
  ('O=[N+]([O-])/C=C/c1cccc(F)c1', 'GI50', '2.54 µM (inactive)'),
  ('Cc1c(C)c2ccc(O)cc2[nH]c1=O', 'GI50', '> 100 µM (inactive)'),
  ('CC(C)(C)c1cc(CCCCCCCC2(CCCCCCCc3cc(C(C)(C)C)cc(C(C)(C)C)c3)OC(COCCOCCCCCC#N)C(COCCOCCCCCC#N)O2)cc(C(C)(C)C)c1 (stereo not given)', 'GI50', '> 100 µM (inactive)'),
  ('CCCCOCCOCCOC1=C(Cl)C(=O)c2c(O)ccc(O)c2C1=O', 'GI50', '1.35 µM (inactive)'),
  ('CCCCCCCCC1=CCC(CN(C)C)C1=O (stereo not given)', 'GI50', '17 µM (inactive)'),
  ('CCn1c2c(c3ccccc31)C(c1ccccc1)CC1C(=O)N(c3ccccc3)C(=O)C21 (stereo not given)', 'GI50', '36.1 µM (inactive)'),
  ('CC1CCC(=O)NCCCCC(=O)N1 (stereo not given)', 'GI50', '> 100 µM (inactive)'),
  ('C1=C2C3=[N+](CCCC3)CC2Cc2ccsc21 (stereo not given)', 'GI50', '> 100 µM (inactive)'),
  ('CCCCNC1=C(C(=O)OCC)/C(=N/NC(=O)c2ccccc2O)CO1', 'GI50', '4.54 µM (inactive)'),
  ('CCCCn1cc(C(=O)O)c(=O)c2c3sccc3ccc21', 'GI50', '20 µM (inactive)'),
  ('O=S1(=O)OCc2ccccc21', 'GI50', '> 100 µM (inactive)'),
  ('O=C(c1ccncc1)n1nc(-c2ccccc2)c(/N=N/c2ccc([N+](=O)[O-])cc2)c1-c1ccccc1', 'GI50', '15.9 µM (inactive)');
